Hello, the source for this data is ChEMBL document CHEMBL1201862, in case you need it.

GI50 values by entry
- Test system: SK-MEL-28
- assay-info: NCI tumour cell line growth inhibition, 48 h
Activity calls are given as the source filed them. No stated cut-off is given here; in the data, active = GI50 up to about 1.1 µM and inactive = higher.

Before answering, review these 6 worked examples.
compound	endpoint-result
CC1=C(C)SC(=C2Sc3[n-]c(=O)[nH]c(=O)c3S2)S1.CCCC[N+](CCCC)(CCCC)CCCC	39.2 µM (inactive)
CN(C)N1C(=O)C(=O)N(c2cccc3ccccc23)C1=O	> 10 µM (inactive)
CC1(CO)OC(n2cnc3c(N)ncnc32)C(O)C1O (stereo unspecified)	> 100 µM (inactive)
Cc1ccc(C)c2c1NC(=O)/C2=N\Nc1ccccc1[N+](=O)[O-]	> 100 µM (inactive)
Cc1ccc(/C=C(\NC(=O)c2ccccc2)c2nc3ccccc3[nH]2)cc1	71.9 µM (inactive)
COc1nc(NC2OC(COC(C)=O)C(OC(C)=O)C(OC(C)=O)C2OC(C)=O)c(-c2csc(N)n2)c(=O)n1C (stereo unspecified)	55.7 µM (inactive)

Field GI50 (entry COc1c(CC(C)O)c2c3c(CC(C)O)c(OC)c(=O)c4c(O)cc5c(c6c(cc(O)c(c1=O)c62)OCO5)c43 (stereo unspecified) ) reads 1.86 µM (inactive)

Measured GI50 of COCC1OC(N2C(=O)NC(=O)[C@@H]3C=C4CCCCC4=C[C@@H]32)C(OC)C1OC (stereo partly specified) : > 100 µM (inactive)

---

Entries and their GI50 values follow.
- System: U-251
- assay-info: NCI tumour cell line growth inhibition, 48 h
The source made the active and inactive calls. Cut-off read from the data, not from the text of the source: active = GI50 up to about 1.1 µM and inactive = higher.

smiles-text	GI50
N#CCCN(CCCCN(CCC#N)C(=O)Nc1ccccc1)C(=O)Nc1ccccc1	> 100 µM (inactive)
COc1ccc2nc3cc(Cl)ccc3c(NCCCCCC(=O)NC(COc3ccc4ccc5cccnc5c4n3)COc3ccc4ccc5cccnc5c4n3)c2c1	13.8 µM (inactive)
CSC1(SC)N2Cc3ccccc3N=C2C1(c1ccccc1)c1ccccc1	15.1 µM (inactive)

Sample COc1ccc(-c2ncnc(-c3ccc(OC)c(OC)c3)n2)cc1OC ; GI50 observed: > 100 µM (inactive)

The reported GI50 of the compound COC(=O)C(C)(C)[C@@H]1OC(=O)N(S(=O)(=O)c2c(C)cc(C)cc2C)[C@H]1C(C)C was > 100 µM (inactive)

---

- Test system: SN12C
- assay-info: NCI tumour cell line growth inhibition, 48 h
Active and inactive are the calls of the source. Rule as the data show it: active = GI50 up to about 1.1 µM and inactive = higher.
Could you please pick one outcome from this set? YES for active, NO for inactive

Would you please look over these solved cases?
compound	classification
O=c1[nH]cnc2c(COCCCO)c[nH]c12	NO
O=C(/C=C/c1ccc(Cl)c(Cl)c1)c1cccc2ccccc12	NO
COC1(OC)CC(CO)(COc2cc(Cl)nc(N)n2)C1	NO
Nc1ccc2cc(S(=O)(=O)O)cc(O)c2c1/N=N/c1ccc(NC(=O)Nc2ccc(/N=N/c3c(N)ccc4cc(S(=O)(=O)O)cc(O)c34)c(S(=O)(=O)O)c2)cc1S(=O)(=O)O	NO
O=C1Oc2ccccc2C(=O)/C1=C\NC(=S)c1ccncc1	NO
O=c1ccc2ccc(OP(=O)(O)O)cc2o1	NO

Which result was noted for this compound in the test: O=c1oc(-c2ccccc2)cn1-c1ccccc1
NO

Any idea what this test logged for COC(=O)C(C(=O)C(=O)Nc1nc2ccc([N+](=O)[O-])cc2s1)c1nc2ccc(Cl)cc2nc1O (configuration not stated) ?
NO
